B1: glmS ribozyme (parent)
chain: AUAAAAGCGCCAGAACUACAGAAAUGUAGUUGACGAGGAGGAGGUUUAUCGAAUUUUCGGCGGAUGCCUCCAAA

Variants of: B1
Assay: self-cleavage kobs at 10000 uM GlcN6P; higher = faster cleavage; RNA array
Conditions: with glucosamine-6-phosphate
Variants at the floor of the assay were thinned out.

| mutation id | self-cleavage kobs at 10000 uM GlcN6P |
| --- | --- |
| A14C G51U | < 1e-05 s⁻¹ |
| G13U A36U A53C | < 1e-05 s⁻¹ |
| C11G G38U | < 1e-05 s⁻¹ |
| G7U G41U G59U A64G | < 1e-05 s⁻¹ |
| U30G U49A C68A | < 1e-05 s⁻¹ |
| C8A G40U | < 1e-05 s⁻¹ |
| G7A G37U | < 1e-05 s⁻¹ |
| G13C A36C U46G C68A | < 1e-05 s⁻¹ |
| A12U G32A | 0.000735 s⁻¹ |
| G32A A33U G37U | < 1e-05 s⁻¹ |
| G29C U31C | 0.000284 s⁻¹ |
| G43A G60C | < 1e-05 s⁻¹ |
| G29U A42G U56C G63A | < 1e-05 s⁻¹ |
| A39G U46A | 0.00435 s⁻¹ |
| A14U A53G | 0.00969 s⁻¹ |
| G41U U69G | < 1e-05 s⁻¹ |
| C16U A33U | 8.92e-05 s⁻¹ |
| G29A A36G C58A | < 1e-05 s⁻¹ |
| G7U C8A U47G G60U | < 1e-05 s⁻¹ |
| A48G U55A | 9.5e-05 s⁻¹ |
| U31G A33U C70U | 7.8e-05 s⁻¹ |
| A14U C34A G60A C61A | < 1e-05 s⁻¹ |
| G29U G37A | 0.000383 s⁻¹ |
| U45A A48C | 0.000445 s⁻¹ |
| G60C G63A | < 1e-05 s⁻¹ |
| A6G U45A U57G | < 1e-05 s⁻¹ |
| A14U G66U | 0.000243 s⁻¹ |
| A53G G66A | 0.0293 s⁻¹ |
| U55G C58A | 0.000461 s⁻¹ |
| A42G U47A | 0.00752 s⁻¹ |
| G35C G38U G43A G51C G60C | < 1e-05 s⁻¹ |
| A36G G43A C58A G62C C68G | < 1e-05 s⁻¹ |
| A39G A48U C58G | < 1e-05 s⁻¹ |
| C34U G44U U54A G63C | < 1e-05 s⁻¹ |
| U56G A64U C70U | 4.79e-05 s⁻¹ |
| U30G G37U A52U G59A | < 1e-05 s⁻¹ |
| A36C U49C | < 1e-05 s⁻¹ |
| A12C C61A | < 1e-05 s⁻¹ |
